Test system: VDR:RXRa (NR concentration 270 nM, RXRa partner concentration 90 nM)
Test: PBM binding z-score (relative to random genomic background probes); higher = stronger binding; sequences stand for … in GC…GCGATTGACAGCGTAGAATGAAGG
Classification field: enter yes (1) for PBM binding z-score values not below 2, no (0) for values below it.

> print(dat)
                       sequence.string  discrete.label
 1  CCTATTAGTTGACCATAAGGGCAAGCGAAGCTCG          no (0)
 2  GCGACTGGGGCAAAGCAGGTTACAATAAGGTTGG          no (0)
 3  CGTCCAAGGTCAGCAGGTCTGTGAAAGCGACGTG         yes (1)
 4  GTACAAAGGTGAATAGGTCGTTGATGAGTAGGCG         yes (1)
 5  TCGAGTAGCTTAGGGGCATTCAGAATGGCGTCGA          no (0)
 6  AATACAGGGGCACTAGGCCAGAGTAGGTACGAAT          no (0)
 7  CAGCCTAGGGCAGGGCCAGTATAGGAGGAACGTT          no (0)
 8  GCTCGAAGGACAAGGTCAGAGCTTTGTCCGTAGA          no (0)
 9  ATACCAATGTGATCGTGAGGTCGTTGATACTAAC          no (0)
10  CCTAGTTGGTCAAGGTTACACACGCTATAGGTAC          no (0)
11  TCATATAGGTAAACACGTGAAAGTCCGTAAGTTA          no (0)
12  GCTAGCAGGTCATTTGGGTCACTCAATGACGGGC         yes (1)
13  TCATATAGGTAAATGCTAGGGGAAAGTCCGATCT          no (0)
14  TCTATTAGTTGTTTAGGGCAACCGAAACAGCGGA          no (0)
15  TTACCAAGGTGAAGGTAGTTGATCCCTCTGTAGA          no (0)
16  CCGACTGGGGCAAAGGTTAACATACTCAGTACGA         yes (1)
17  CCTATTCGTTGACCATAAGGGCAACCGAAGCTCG          no (0)
18  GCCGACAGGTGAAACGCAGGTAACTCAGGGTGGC          no (0)
19  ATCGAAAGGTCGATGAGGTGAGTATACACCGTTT         yes (1)
20  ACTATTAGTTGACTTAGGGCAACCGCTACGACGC          no (0)
21  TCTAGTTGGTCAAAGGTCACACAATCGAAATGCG         yes (1)
22  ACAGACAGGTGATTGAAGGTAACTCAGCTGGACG          no (0)
23  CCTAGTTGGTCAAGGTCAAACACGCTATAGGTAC         yes (1)
24  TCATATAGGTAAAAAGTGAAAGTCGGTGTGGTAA          no (0)
25  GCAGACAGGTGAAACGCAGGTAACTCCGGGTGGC          no (0)
26  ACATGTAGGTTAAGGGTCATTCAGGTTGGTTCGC         yes (1)
27  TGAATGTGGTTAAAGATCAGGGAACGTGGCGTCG          no (0)
28  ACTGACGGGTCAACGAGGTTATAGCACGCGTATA         yes (1)
29  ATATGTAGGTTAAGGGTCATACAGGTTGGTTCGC         yes (1)
30  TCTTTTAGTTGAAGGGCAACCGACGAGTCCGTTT          no (0)
31  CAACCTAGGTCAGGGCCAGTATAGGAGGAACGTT          no (0)
32  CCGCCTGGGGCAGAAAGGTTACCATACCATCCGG          no (0)
33  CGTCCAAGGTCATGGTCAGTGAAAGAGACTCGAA         yes (1)
34  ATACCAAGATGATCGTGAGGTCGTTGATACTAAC          no (0)
35  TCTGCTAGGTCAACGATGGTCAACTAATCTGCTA         yes (1)
36  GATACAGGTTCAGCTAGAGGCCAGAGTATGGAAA         yes (1)
37  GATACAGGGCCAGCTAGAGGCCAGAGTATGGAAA          no (0)
38  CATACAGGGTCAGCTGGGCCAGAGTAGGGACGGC         yes (1)
39  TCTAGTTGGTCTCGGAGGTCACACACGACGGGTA         yes (1)
40  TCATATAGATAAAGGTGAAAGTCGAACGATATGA          no (0)
41  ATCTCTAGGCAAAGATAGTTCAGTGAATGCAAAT          no (0)
42  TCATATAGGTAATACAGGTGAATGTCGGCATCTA          no (0)
43  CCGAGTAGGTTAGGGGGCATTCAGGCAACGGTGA         yes (1)
44  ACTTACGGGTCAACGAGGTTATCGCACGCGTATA         yes (1)
